test: Hepatic clearance in human liver microsomes; type: ADME, Microsome; details: read-out: CLH
resultType: microsomal CLint (µL/min/mg)
One number for each entry, in µL/min/mg.

Sample answers from the record:
- compoundString: "CNc1nccc2ccc(C(=O)N3CCC4(CC3)Cc3cn(C(C)(C)C)nc3C(=O)N4)cc12"
  measureUnit: "µL/min/mg"
  microsomal CLint: 25
- compoundString: "Cc1n[nH]c2c(C)cc(C(=O)N3CCC4(CC3)Cc3cnn(C(C)(C)C)c3C(=O)N4)cc12"
  measureUnit: "µL/min/mg"
  microsomal CLint: 17
- compoundString: "CCC(C)(C)n1cc2c(n1)C(=O)NC1(CCN(C(=O)c3cc(C)c4[nH]nc(C)c4c3)CC1)C2"
  measureUnit: "µL/min/mg"
  microsomal CLint: 35

Proceed to the following item.
Output measured microsomal CLint for this item: `CC(C)(C)n1cc2c(n1)C(=O)NC1(CCN(C(=O)c3ccc4c(Cl)c[nH]c4c3)CC1)C2`
31

###

Record form. Attribute: logD. Fill in for each entry.
assay: Lipophilicity, log D of the compound; type: physicochemical; conditions: octanol/water
Answers are plain numbers.

- compoundString: "CC(C)(C)n1cc2c(n1)C(=O)NC1(CCN(C(=O)c3ccc4[nH]nc(C(F)(F)F)c4c3)CC1)C2"
  measured: 2.5

Parameter requested: logD. Apply to each item below.
1. CC(C)(C)n1cc2c(n1)C(=O)NC1(CCN(C(=O)c3ccc4[nH]nc(Cl)c4c3)CC1)C2
2. CNc1ccc2ccc(C(=O)N3CCC4(CC3)Cc3cn(C(C)(C)C)nc3C(=O)N4)cc2n1
3. COc1cc2cc(C(=O)N3CCC4(CC3)Cc3cn(C(C)(C)C)nc3C(=O)N4)ccc2cn1

1.8
1.5
1.6

Parameter requested: logD. Apply to each item below.
1. COc1ccc2ccc(C(=O)N3CCC4(CC3)Cc3cn(C(C)(C)C)nc3C(=O)N4)cc2n1
2. CC(C)(C)n1cc2c(n1)C(=O)NC1(CCN(C(=O)c3ccc4[nH]cc(Cl)c4c3)CC1)C2
3. CC(C)(C)n1cc2c(n1)C(=O)NC1(CCN(C(=O)c3ccc4[nH]ncc4c3)CC1)C2
4. CC(C)(C)n1cc2c(n1)C(=O)NC1(CCN(C(=O)c3ccc4c(Cl)c[nH]c4c3)CC1)C2

1. 2.2
2. 2.6
3. 1
4. 3.5

Parameter requested: logD. Apply to each item below.
1. CC(C)(C)n1cc2c(n1)C(=O)CC1(CCN(C(=O)c3ccc4[nH]ncc4c3)CC1)O2
2. Cc1n[nH]c2c(C)cc(C(=O)N3CCC4(CC3)Cc3cn(C(C)C)nc3C(=O)N4)cc12
3. CCCNc1ccc2ccc(C(=O)N3CCC4(CC3)Cc3cn(C(C)(C)C)nc3C(=O)N4)cc2n1
4. Cc1n[nH]c2c(C)cc(C(=O)N3CCC4(CC3)Cc3cn(C(C)(C)C)nc3C(=O)N4)cc12
5. CC(C)(C)n1cc2c(n1)C(=O)NC1(CCN(C(=O)c3cnc4c(Cl)c[nH]c4c3)CC1)C2

1. 1.4
2. 1.1
3. 2.1
4. 1.5
5. 1.4

###

test: AUC (last) in rat at 5 mg/kg, po; type: ADME, organism-based; design: time 0 - last, dose 5 mg/kg, route oral; details: plasma
resultType: AUC(0-t) (ng·h/mL)
One number for each entry, in ng·h/mL.

- compoundString: "COc1nccc2ccc(C(=O)N3CCC4(CC3)Cc3cn(C(C)(C)C)nc3C(=O)N4)cc12"
  resultType: "AUC(0-t)"
  measured: 713

Proceed to the following item.
Output measured AUC(0-t) for this item: `COc1ccc2ccc(C(=O)N3CCC4(CC3)Cc3cn(C(C)(C)C)nc3C(=O)N4)cc2n1`
2070
